Test system: CCRIS mutagenicity, Ames/micronucleus/aberration tests
Assay: CCRIS mutagenicity studies
Conditions: Test System: AMES SALMONELLA TYPHIMURIUM; Strain/Indicator: TA98; Metabolic Activation: HAMSTER, LIVER, S-9, AROCLOR 1254 (30%); Method: PREINCUBATION
Active and inactive are the calls of the source. No rule for the calls is given here.

compound	target or system	mutagenic call
COc1cc([N+](=O)[O-])ccc1N=NC(C(C)=O)C(=O)Nc1ccccc1OC (configuration not stated)	CCRIS mutagenicity, Ames/micronucleus/aberration tests	inactive; negative
CCC(Cl)[N+](=O)[O-] (configuration not stated)	CCRIS mutagenicity, Ames/micronucleus/aberration tests	active; positive
NC(=O)Nc1nc2ccccc2[nH]1	CCRIS mutagenicity, Ames/micronucleus/aberration tests	active; positive
COc1ccc(N)c(OC)c1	CCRIS mutagenicity, Ames/micronucleus/aberration tests	active; positive
ClCC(Cl)Cl	CCRIS mutagenicity, Ames/micronucleus/aberration tests	inactive; negative
COc1ccc(N)c(C)c1	CCRIS mutagenicity, Ames/micronucleus/aberration tests	inactive; negative
[Ga]#[As]	CCRIS mutagenicity, Ames/micronucleus/aberration tests	inactive; negative
Nc1cc(Cl)ccc1Cl	CCRIS mutagenicity, Ames/micronucleus/aberration tests	inactive; negative
O=C1c2ccccc2C(=O)C1(O)O	CCRIS mutagenicity, Ames/micronucleus/aberration tests	inactive; negative
c1ccc(Nc2ccccc2)cc1	CCRIS mutagenicity, Ames/micronucleus/aberration tests	inactive; negative
c1ccc2cc(Nc3ccc(Nc4ccc5ccccc5c4)cc3)ccc2c1	CCRIS mutagenicity, Ames/micronucleus/aberration tests	active; positive
COC(=O)c1ccc(C)cc1	CCRIS mutagenicity, Ames/micronucleus/aberration tests	inactive; negative
CCCCCCCC(=O)Cl	CCRIS mutagenicity, Ames/micronucleus/aberration tests	inactive; negative
CCC(C)Nc1ccc(NC(C)CC)cc1 (configuration not stated)	CCRIS mutagenicity, Ames/micronucleus/aberration tests	inactive; negative
CC(C)(Cl)[N+](=O)[O-]	CCRIS mutagenicity, Ames/micronucleus/aberration tests	inactive; negative
Cc1cc(Cl)ccc1O	CCRIS mutagenicity, Ames/micronucleus/aberration tests	inactive; negative
O=Cc1ccc(Cl)c(Cl)c1	CCRIS mutagenicity, Ames/micronucleus/aberration tests	inactive; negative
